- ASSAY TEXT: Displacement of [3H]AMPA from AMPA receptor in rat brain membranes by scintillation counting method
- Assay type: cell membranes, Membrane
pKi: −log10 of the molar value.
PROPERTY LABEL: pKi

1. NC(Cc1cc(Cl)c(O)c(-c2cccc(O)c2)c1)C(=O)O (racemic) ... 5.10
2. Nc1c(Cl)cc(CC(N)C(=O)O)cc1-c1cccc(O)c1 (racemic) ... 5.00
3. NC(Cc1cc(-c2cc(O)cc(F)c2)c(Cl)c([N+](=O)[O-])c1)C(=O)O (racemic) ... 5.47
4. NC(Cc1cc(-c2cccc(O)c2)c(Cl)c([N+](=O)[O-])c1)C(=O)O (racemic) ... 5.51
5. NC(Cc1cc(-c2cncc(O)c2)c(Cl)c([N+](=O)[O-])c1)C(=O)O (racemic) ... 5.70
6. NC(Cc1cc(Cl)cc(-c2cccc(O)c2)c1)C(=O)O (racemic) ... 5.03
7. NC(Cc1cc(-c2cc(O)ccc2O)c(Cl)c([N+](=O)[O-])c1)C(=O)O (racemic) ... 6.04
8. NC(Cc1cc(-c2cccc(O)c2)cc([N+](=O)[O-])c1)C(=O)O (racemic) ... 5.09
9. NC(Cc1cc(Cl)cc(-c2ccc(O)cc2)c1)C(=O)O (racemic) ... 4.34
